study_system: p38 MAPK (Homo sapiens, UniProt Q16539)
Sequence (Q16539 whole entry): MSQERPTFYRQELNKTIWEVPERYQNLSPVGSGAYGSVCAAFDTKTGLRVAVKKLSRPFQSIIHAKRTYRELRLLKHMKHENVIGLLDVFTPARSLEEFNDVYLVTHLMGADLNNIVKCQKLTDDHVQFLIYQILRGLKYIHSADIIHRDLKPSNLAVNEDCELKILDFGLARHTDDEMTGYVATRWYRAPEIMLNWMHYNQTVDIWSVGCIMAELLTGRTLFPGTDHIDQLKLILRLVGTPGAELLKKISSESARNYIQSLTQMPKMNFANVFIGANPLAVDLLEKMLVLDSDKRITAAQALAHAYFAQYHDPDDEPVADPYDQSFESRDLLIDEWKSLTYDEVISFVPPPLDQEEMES
experiment_summary: phosphorylation assay of p38 MAPK activity (see Kumar)
test_context: assay similar to the phosphorylation assay (Kumar); read-out: p38 MAPK activity, relative IC50 value
pIC50: −log10 of the molar value.
readout_kind: pIC50

molecule | study_system | readout_kind | result
COc1cc2c(cc1C(=O)N1CC(C)N(Cc3ccc(F)cc3)CC1C)c(C(=O)C(=O)N(C)C)cn2C (stereo not shown) [compound 15] | p38 MAPK (Homo sapiens, UniProt Q16539) | pIC50 | > 8.30
